Can you tell me inhibition at 0.3 µM for the items I'm about to list?
biological target: hERG potassium channel (Homo sapiens); construct: expressed in transfected cells; host or cells: HEK-293-hERG cells; assay: hERG whole-cell patch clamp experiment; assay type: cell-based; details: HEK-293 cells that express hERG, 0.3 μM, HEK-293-hERG cell, read-out: inhibition rate
Sequence (Q12809 whole entry): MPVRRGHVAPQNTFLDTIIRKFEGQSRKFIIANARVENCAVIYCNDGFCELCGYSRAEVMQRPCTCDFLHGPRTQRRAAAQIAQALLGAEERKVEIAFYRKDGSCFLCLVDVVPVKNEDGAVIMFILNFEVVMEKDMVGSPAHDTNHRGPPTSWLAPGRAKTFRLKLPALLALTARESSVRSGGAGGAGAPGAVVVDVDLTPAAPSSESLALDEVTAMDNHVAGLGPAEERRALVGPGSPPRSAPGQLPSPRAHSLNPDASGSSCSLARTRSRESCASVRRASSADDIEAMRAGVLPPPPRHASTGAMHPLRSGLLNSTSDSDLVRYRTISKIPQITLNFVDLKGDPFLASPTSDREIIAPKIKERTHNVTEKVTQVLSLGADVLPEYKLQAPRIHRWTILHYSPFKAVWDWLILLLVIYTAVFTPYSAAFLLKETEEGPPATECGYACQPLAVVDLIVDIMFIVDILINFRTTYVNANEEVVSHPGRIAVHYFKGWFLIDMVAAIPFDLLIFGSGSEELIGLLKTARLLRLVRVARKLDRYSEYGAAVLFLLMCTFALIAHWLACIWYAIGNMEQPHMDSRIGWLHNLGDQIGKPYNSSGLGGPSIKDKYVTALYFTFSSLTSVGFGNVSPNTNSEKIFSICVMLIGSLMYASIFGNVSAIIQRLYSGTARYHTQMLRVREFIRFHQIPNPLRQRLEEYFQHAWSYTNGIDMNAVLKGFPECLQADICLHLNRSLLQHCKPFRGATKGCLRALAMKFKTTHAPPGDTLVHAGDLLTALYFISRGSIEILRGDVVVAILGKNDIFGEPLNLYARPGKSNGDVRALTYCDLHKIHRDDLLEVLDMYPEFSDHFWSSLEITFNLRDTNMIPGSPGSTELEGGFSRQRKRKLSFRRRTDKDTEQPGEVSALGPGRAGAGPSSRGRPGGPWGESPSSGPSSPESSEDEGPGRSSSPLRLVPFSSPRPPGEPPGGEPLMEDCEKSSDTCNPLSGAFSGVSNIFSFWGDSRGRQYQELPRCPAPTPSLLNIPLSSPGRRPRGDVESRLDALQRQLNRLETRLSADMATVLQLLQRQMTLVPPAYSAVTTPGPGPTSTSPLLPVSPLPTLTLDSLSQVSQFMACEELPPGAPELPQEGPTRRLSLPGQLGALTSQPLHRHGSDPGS
One number for each entry, in %.

{"COMPOUND": "O=C(O)[C@@H](Cc1cccc(CN(Cc2cccc(C[C@H](C(=O)O)[C@H]3CCNC3)c2)Cc2cccc(C[C@H](C(=O)O)[C@H]3CCNC3)c2)c1)[C@H]1CCNC1 [Comparative Example 1, reference compound]", "SYSTEM UNDER TEST": "hERG potassium channel (Homo sapiens)", "RECORDED MEASUREMENT": 7.37}

Output measured inhibition at 0.3 µM for this item: `O=C(O)[C@@H](Cc1cccc(CN(Cc2cccc(C[C@H](C(=O)O)[C@H]3CCNC3)c2)C(=O)c2cccc(C[C@H](C(=O)O)[C@H]3CCNC3)c2)c1)[C@H]1CCNC1`
-0.06
